Taken from PubChem BioAssay (Tox21).

experiment: qHTS assay to identify small molecule agonists of the constitutive androstane receptor (CAR) signaling pathway - cell viability counter screen (AID 1224836); conditions: HepG2-CYP2B6-hCAR viability, CellTiter-Fluor, 23 h, PK11195 added to every well; series mostly up to 92.4 µM; also: nearly all actives have a fitted effect of over 45% in size
Records with an inconclusive call do not appear. Calls of active or inactive are those of the source. Calls follow the shape of the dose curve; as a rule, active = well fitted cell-killing curve with a large enough effect in the repeat runs; inconclusive = weak or mixed curves, or effect the other way; inactive = flat fitted curve, though single readings scatter.
RECORDED ENDPOINT: outcome

Guide cases for outcome, answers given:
| COMPOUND | RECORDED ENDPOINT | RESULT |
| --- | --- | --- |
| CC(=O)OCC(COC(C)=O)OC(C)=O | outcome | inactive |
| N=C(N)c1ccc(OCCCCCOc2ccc(C(=N)N)cc2)cc1 | outcome | inactive |
| Nc1ccc(S(=O)(=O)c2ccc(N)cc2)cc1 | outcome | inactive |
| CCCCOC(=O)CC(CC(=O)OCCCC)(OC(C)=O)C(=O)OCCCC | outcome | inactive |

Report outcome for every entry below.
1. CCOc1ccc(NC(=O)CC(C)O)cc1 (stereo not given)
2. Cc1ccc(C)c(OCCCC(C)(C)C(=O)O)c1
3. O=C(c1ccccc1)c1ccccc1
4. Cc1cc(=O)n(-c2ccccc2)n1C

output:
["inactive", "inactive", "inactive", "inactive"]

Below are 5 compounds. Give each one its outcome.
1. NC(N)=NC(=O)c1nc(Cl)c(N)nc1N
2. NNC(=O)c1ccncc1
3. O=C1NC(=O)c2ccccc21
4. O=S(=O)(O)NC1CCCCC1
5. O=c1ccc2ccccc2o1

output:
inactive
inactive
inactive
inactive
inactive

For each of the compounds below, note its outcome.
1. O=C(O)C(=O)O
2. O=C(O)CCCCC(=O)O
3. O=C(c1ccccc1)C(O)c1ccccc1 (stereo not given)
4. CC(C)[C@@H]1CC[C@@H](C)C[C@H]1O
5. CC(=O)Nc1nnc(S(N)(=O)=O)s1
6. COc1ccc2[nH]cc(CCNC(C)=O)c2c1
7. O=C(O)CCCCCCCC(=O)O

output:
1: inactive; 2: inactive; 3: inactive; 4: inactive; 5: inactive; 6: inactive; 7: inactive

Hey, quick one: what's outcome for each of these?
1. Oc1ccc(/C=C/c2cc(O)cc(O)c2)cc1
2. CCC1(c2ccccc2)C(=O)NCNC1=O
3. CC(O)CO (stereo not given)
4. O=C(O)c1cccnc1

output:
inactive
inactive
inactive
inactive

For each of the compounds below, note its outcome.
1. CCCNC(=O)NS(=O)(=O)c1ccc(Cl)cc1
2. Nc1ccn([C@H]2CC[C@@H](CO)O2)c(=O)n1
3. Cc1ccccc1C(OCCN(C)C)c1ccccc1 (stereo not given)
4. NS(=O)(=O)c1cc(C(=O)O)c(NCc2ccco2)cc1Cl

output:
1. inactive
2. inactive
3. inactive
4. inactive

Provide each entry's outcome from the list below.
1. Cc1noc(NS(=O)(=O)c2ccc(N)cc2)c1C
2. CCCC(O)C(CC)CO (stereo not given)

output:
["inactive", "inactive"]

----------
biological target: Estrogen receptor (Homo sapiens) (UniProt P03372); assay: qHTS assay to identify small molecule agonists of the estrogen receptor alpha (ER-alpha) signaling pathway using the BG1 cell line (AID 743079); conditions: BG1Luc4E2 cells, ERE-luciferase agonist, 22 h; series mostly up to 70.3 µM; also: nearly all actives have a fitted effect of over 20% in size
Sequence (P03372 whole entry, looked up): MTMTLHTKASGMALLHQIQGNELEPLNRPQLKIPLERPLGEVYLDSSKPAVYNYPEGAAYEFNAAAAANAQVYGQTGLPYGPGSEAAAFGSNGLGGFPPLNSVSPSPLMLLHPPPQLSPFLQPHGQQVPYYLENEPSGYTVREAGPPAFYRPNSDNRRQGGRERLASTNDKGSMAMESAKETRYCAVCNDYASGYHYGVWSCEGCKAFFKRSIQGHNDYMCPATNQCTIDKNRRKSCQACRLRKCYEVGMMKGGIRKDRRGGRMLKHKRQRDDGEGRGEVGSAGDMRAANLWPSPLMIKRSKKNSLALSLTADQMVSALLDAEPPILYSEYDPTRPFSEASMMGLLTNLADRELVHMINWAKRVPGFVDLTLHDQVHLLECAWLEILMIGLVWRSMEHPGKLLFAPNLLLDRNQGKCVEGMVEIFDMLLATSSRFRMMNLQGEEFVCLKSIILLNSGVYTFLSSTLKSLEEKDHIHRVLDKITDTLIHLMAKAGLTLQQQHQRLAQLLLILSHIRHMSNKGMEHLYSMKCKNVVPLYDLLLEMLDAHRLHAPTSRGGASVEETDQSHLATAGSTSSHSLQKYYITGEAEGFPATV
Results filed as inconclusive are left out. Activity calls are given as the source filed them. Calls follow the shape of the dose curve; as a rule, active = well fitted activation curve with a large enough effect in the repeat runs; inconclusive = weak or mixed curves, or effect the other way; inactive = no such curve, though single readings can be large or run the other way.
RECORDED ENDPOINT: outcome

| MOLECULE | TARGET ENTITY | outcome |
| --- | --- | --- |
| Nc1ccn([C@H]2CC[C@@H](CO)O2)c(=O)n1 | Estrogen receptor (Homo sapiens) (UniProt P03372) | inactive |
| CC(=O)Nc1nnc(S(N)(=O)=O)s1 | Estrogen receptor (Homo sapiens) (UniProt P03372) | inactive |
| Nc1ccc(S(=O)(=O)Nc2nccs2)cc1 | Estrogen receptor (Homo sapiens) (UniProt P03372) | inactive |
| O=C(O)CCC(=O)O | Estrogen receptor (Homo sapiens) (UniProt P03372) | inactive |
| O=C(O)CCCCC(=O)O | Estrogen receptor (Homo sapiens) (UniProt P03372) | inactive |

State the recorded outcome for every item in the following list.
1. Nc1ccc(S(=O)(=O)c2ccc(N)cc2)cc1
2. NC(N)=NC(=O)c1nc(Cl)c(N)nc1N
3. Cc1cc(=O)[nH]c(=S)[nH]1
4. CCCC(CCC)C(=O)O
5. C[C@]12C=CC(=O)C=C1CC[C@@H]1[C@@H]2[C@@H](O)C[C@@]2(C)[C@H]1CC[C@]2(O)C(=O)CO
6. CCCCC1C(=O)N(c2ccccc2)N(c2ccccc2)C1=O

output:
1. inactive
2. inactive
3. inactive
4. inactive
5. inactive
6. inactive

I would be grateful if you could provide outcome for each of the following entries.
1. CC1(C)[C@@H]2CC[C@@]1(C)C(=O)C2
2. CCCCC(CC)COC(=O)/C=C/c1ccc(OC)cc1 (stereo not drawn)

output:
["inactive", "inactive"]
